# Tested on: MS2 coat protein
# ASSAY_EXPLANATION: apparent KD of MS2 coat protein; higher = weaker reporter binding
# PARTICULARS: Eterna round: R107; input ligand: theophylline 20 uM
Overview of recorded apparent KD of MS2 coat protein for various sequences
MEASURE: apparent KD of MS2 coat protein (nM)

[[record]]
sequence_entry = "GCGCGCGCCGAAAGGCGCGCGUGUUGCGAUACCAGCCCGGAAACGGGCCCUUGGCAGCGCACAUGAGGAUCACCCAUGUCAUGUU [Exclusion - Theophylline A Attempt #1 (HarryS)]"
value_observed = 27.1

[[record]]
sequence_entry = "GGUGGCGGGACUGAUACCAGCCACCACCGAUAGACCACAUGAGGAUCACCCAUGUUGGGUGGCCCUUGGCAGCAGUCUUGCUGCC [#1 Same State - Theophylline B Attempt #12 (HarryS)]"
value_observed = 432

[[record]]
sequence_entry = "GGUCUCUGGAGCGAUACCAGCUUAAUUGUACUGGCCAGGUACAUGAGGAUCACCCAUGUAAGCCCUUGGCAGCGCUCCAGAGACC [#1 Exclusion - Theophylline B Attempt #12 (HarryS)]"
value_observed = 13.6

[[record]]
sequence_entry = "AUCAUAAUAGCCUCGUGUAAUUAAAUGGAACGAGGACCGGUACGGCCGCCACUCGAUAUAAACAUGAGGAUCACCCAUGUAAGCA [JR_ExcTryptoA_Sub004]"
value_observed = 44.1

[[record]]
sequence_entry = "AACAUACAAUAAAAGGUGGAAAUAAGGCGGCGAGGACCGGUACGGCCGCCACUCGCGUACAUGAGGAUCACCCAUGUCUGAAACU [Same State - Tryptophan A (Freestyle 2)]"
value_observed = 24.2

[[record]]
sequence_entry = "GGAUAGGACACGGCCGCCACUAUCUAGGAUACUAGCAACAUUUGGGUAUAUGAGGAUCACCCAUAUAGGACCGGGUGUCCUAUCG"
value_observed = 330

[[record]]
sequence_entry = "ACAUCCAGAUUAAUCGUGGGCAUACUCGAUACCAGUAUUUUAAUCUACCCUUGGCAGCGACAUGAGGAUCACCCAUGUGCGAUGA [XTheo A #11]"
value_observed = 13.9

[[record]]
sequence_entry = "UAAACUACACAUGAGGAUCACCCAUGUGGCCGAGGACCGGUACGGCCGCCACUCGUGUGUUAAUAAAAGAACCGCAAAGUUCUUU [Raesonisso]"
value_observed = 410

[[record]]
sequence_entry = "CUGACAUGAGGAUCACCCAUGUACACUGAAGGAGCGUCGAGAAUGACAGGUAGGUCGCAGAAUAAUAAUGGUGAUGUUUAGGUAA [Exclusion Arginine A GF 2]"
value_observed = 34.1

[[record]]
sequence_entry = "UCUUCGUUGGCGUCACAAUUCAUGCAAUGCCGAGGACCGGUACGGCCGCCACUCGGACUAAUACAUGAGGAUCACCCAUGUCGUG [theeternabot_exclusion_MS2_Trp_A_5]"
value_observed = 111

[[record]]
sequence_entry = "GAGAGAGGAGUGCGGCGUGUUCCGCUCCGUCGAGGACCGGUACGGCCGCCACUCGACAUGAGGAUCACCCAUGUCCUCUCUCGCG [#1 Exclusion - Tryptophan A Attempt #4 (HarryS)]"
value_observed = 102

[[record]]
sequence_entry = "UCGUGUGUUUCGGAUACCAGUGAAAUCGAUACAUGAGGAUCACCCAUGUGAGAGGAUGUACACCCUUGGCAGCUGUCUGUAUCUG [asczmullin]"
value_observed = 16.8

[[record]]
sequence_entry = "GUUAUAUACUCGGCCGCCACUGAGAGAGUCAUGUAAACAUGAGGAUCACCCAUGUAAUAUAUAUACAGGACCGGGAGUAUAGUAA [4.D]"
value_observed = 22

[[record]]
sequence_entry = "UUUUUCGUAGGUUAUAGUUUAGAAACUGAAGGAGCGUGGUAAUACACAGGUAGGUCGCAGAUUUUACAUGAGGAUCACCCAUGUU [JR_ExcArginiA_Sub013]"
value_observed = 27.6

[[record]]
sequence_entry = "UACAUGAGGAUCACCCAUGUGUAGAGGGAUACCAGUGACAGUAAGCGCCCUUGGCAGCCCGUGAACAAUGGGUGAGCUAAAUAGU [#18 Exclusion-TheophyllineA]"
value_observed = 75.5

[[record]]
sequence_entry = "AACAUCUGGCGUGAUACCAGCCACAUGAGGAUCACCCAUGUCAACACUCGCAAUUGCGACGGCCCUUGGCAGCACGCAUCCUCAG [Sorioncege]"
value_observed = 34.8

[[record]]
sequence_entry = "AGAGUCUAGUCGGCCGCCACUCAUGUCCAAAGGACAUGAGGAUCACCCAUGUACCUAAGGUACAUGAGGACCGGGACUGGACUCA [Omei Tryp B SS C v5]"
value_observed = 131

[[record]]
sequence_entry = "UGAGAACAUGUCUUUAAGUUUACCUCUGAUACCAGAUUGAAAGGCAUCCCUUGGCAGCAGCAUACAUGAGGAUCACCCAUGUCCU [theeternabot_exclusion_MS2_Theo_A_12]"
value_observed = 119

[[record]]
sequence_entry = "ACAUGAGGAUCACCCAUGUUAAACAGGGUGCGAGGACCGGUACGGCCGCCACUCGGACAUUAUUACGAGUGAAUGGUAACGAUGU [#13 Exclusion Tryptophan A]"
value_observed = 33.6

[[record]]
sequence_entry = "UUAUAAGUACCGGUCCUCAGAUCCUCAUGACGAGGACCGGUACGGCCGCCACUCGAAACAUGAGGAUCACCCAUGUAAUAAUACU [Brourdmod08]"
value_observed = 34.5

[[record]]
sequence_entry = "CCUAUCCAGUCGGCCGCCACUGACCAUUUGGAACAGUGGGUGAAUACAUGAGGAUCACCCAUGUACAGGACCGGGACUGUAUAGG [Ex Tryptophan B 21]"
value_observed = 13.1

[[record]]
sequence_entry = "AGCUACUCGUUCCUCAUGUACGAGUGGCAACGAGGACCGGUACGGCCGCCACUCGAAUAAACAUGAGGAUCACCCAUGUACAAAU [T''-M-T'-T-MS2 - Design 8]"
value_observed = 168


----------
# System: MS2 coat protein
# ASSAY_EXPLANATION: apparent KD of MS2 coat protein; designed switch direction (-1 OFF switch, 1 ON switch): -1; higher = weaker reporter binding
# PARTICULARS: input ligand: none
// label = y if apparent KD of MS2 coat protein is not less than 30 nM, otherwise n

[[record]]
sequence_entry = "CUAAUUUGUGUGAGGAUAUGGCGACAGGAGACUAGCCAGAAGGUACAUGAGGAUCACCCAUGUAAGGUCCUCUC [Eternabot (L1) Solution 86] (Eterna round: R97, puzzle: Brourd's mod of Exclusion 4)"
measured_target = "MS2 coat protein"
qualitative_label = "n"

[[record]]
sequence_entry = "CCGUUGCUAGGAUAUACAUGAGGAUCACCCAUGUUUGAUCCAGCGAGUCAAUCCGCUUGUAGAAGGAGUUACAC [EX3 C.9] (Eterna round: R97, puzzle: Exclusion 3)"
measured_target = "MS2 coat protein"
qualitative_label = "n"

[[record]]
sequence_entry = "CUUUCGUGAGGAUAUGUGGCUUCGAUCGUGCGAUCGAGGCUACAGAAGGCACAUGAGGAUCACCCAUGUUCCUC [salish99_ex4_r4_221] (Eterna round: R97, puzzle: Exclusion 4)"
measured_target = "MS2 coat protein"
qualitative_label = "y"

[[record]]
sequence_entry = "GUCAGCUCGUCAGGAUAUACAUGAGGAUCACCCAUGUGAUCAAUAGCAGCUUCGGCUGCAUUAAUGUAGAAGGGACGAGCUGAC [ENG2/5-B1] (Eterna round: R96, puzzle: Exclusion NG 2)"
measured_target = "MS2 coat protein"
qualitative_label = "y"

[[record]]
sequence_entry = "GCUUUAUGCUCGUUAUAACACAUGAGGAUCACCCAUGUUCGGGCUUACGAGUCGUUCUGAAUGUGACCCUGCAUGAG [Eternabot (L2) Solution 47] (Eterna round: R97, puzzle: Sensor, turn-off variant 1)"
measured_target = "MS2 coat protein"
qualitative_label = "y"


----------
# Tested on: MS2 coat protein
# ASSAY_EXPLANATION: apparent KD of MS2 coat protein; designed switch direction (-1 OFF switch, 1 ON switch): -1; higher = weaker reporter binding
# PARTICULARS: input ligand: FMN 200 uM
Decide by apparent KD of MS2 coat protein: equal to or exceeding 40 nM means Yes, less means No.

[[record]]
sequence_entry = "GCGUUCUGAGGAUAUACAUGAGGAUCACCCAUGUUGAGAAAUAAGAAUAAGCCCUUAAGUAGAAGGCAGAGUGC [JR_Ex3_Sub073] (Eterna round: R97, puzzle: Exclusion 3)"
measured_target = "MS2 coat protein"
qualitative_label = "Yes"

[[record]]
sequence_entry = "GGCGACCUAGGAUAUACAUGAGGAUCACCCAUGUUUAUCUAUUAGAUGAAGACGGGUUGUAGAAGGAGGAUAUU [JL Geriin mod] (Eterna round: R96, puzzle: Exclusion 3)"
measured_target = "MS2 coat protein"
qualitative_label = "No"

[[record]]
sequence_entry = "AGCAACGUACAGGAUAUACUUCACCUUCUAGAAGUAGAAGGGUGCACAUGAGGAUCACCCAUGUUAGCGAGCAG [Eternabot (Original) Solution 25] (Eterna round: R97, puzzle: Exclusion 6)"
measured_target = "MS2 coat protein"
qualitative_label = "No"

[[record]]
sequence_entry = "GGAUUUACUGAGGAUAUUACAUCACCCGAUUGAUAAGAAGGCAGAACAUGAGGAUCACCCAUGUGGGUAGUCAA [Polaris3] (Eterna round: R97, puzzle: Exclusion 6)"
measured_target = "MS2 coat protein"
qualitative_label = "Yes"

[[record]]
sequence_entry = "AAUAACAAGCAGAUCCUCCACAUGAGGAUCACCCAUGUGCUCGUCUUGUAAAGUACUAUCACGAAAGUGAUAGUACA (Eterna round: R97, puzzle: Sensor, turn-off variant 1)"
measured_target = "MS2 coat protein"
qualitative_label = "Yes"

[[record]]
sequence_entry = "AACAAGCUUUAAAGAUCCCACAUGAGGAUCACCCAUGUGCUCGUCUUAUAACGUACUGUGACGAAAGUCACGGUACG [JL TOV1 3.25] (Eterna round: R97, puzzle: Sensor, turn-off variant 1)"
measured_target = "MS2 coat protein"
qualitative_label = "No"

[[record]]
sequence_entry = "AUCGUGUGAGGAUAUCGAUUAUGGAAGUCUAGGUCCAUACGCGAGAAGGCACAUGAGGAUCACCCAUGUAAUGG [jl-ex4-4.32 ViennaUCT mod] (Eterna round: R97, puzzle: Exclusion 4)"
measured_target = "MS2 coat protein"
qualitative_label = "No"

[[record]]
sequence_entry = "GGCGAAGUAGGAUAUACAUGAGGAUCACCCAUGUAACCAGAUGGCGUAGGUCUUCUAUGUAGAAGGGCUACGCC [jl-ex3-4.34 ViennaUCT mod] (Eterna round: R97, puzzle: Exclusion 3)"
measured_target = "MS2 coat protein"
qualitative_label = "No"

[[record]]
sequence_entry = "GUUUUCAGACGGAGAUCCUACAUGAGGAUCACCCAUGUCUCUCUUGUUCCUUGCUCGUCUUUUCCUCCUCUGUUCUC [Elimod 33 - Jieux - Sensor, turn-off variant 1] (Eterna round: R97, puzzle: Sensor, turn-off variant 1)"
measured_target = "MS2 coat protein"
qualitative_label = "Yes"

[[record]]
sequence_entry = "GCUCGUGGGCAAGGAUAUCCUACGCUGUUCUGGUUCGUGUCUGUCACAUGAGGAUCACCCAUGUGGGAGAAGGUGCAUUUGGGU [Design 56] (Eterna round: R96, puzzle: Exclusion NG 2)"
measured_target = "MS2 coat protein"
qualitative_label = "No"

[[record]]
sequence_entry = "AAUUUACAUGAGGAUCACCCAUGUGAGGAUAUAUAUAUAUAUUUGUUAUUGUAUGUUUGUAGAAGGCGCGUGAU [JR_Exc1_Sub033] (Eterna round: R97, puzzle: Exclusion 1)"
measured_target = "MS2 coat protein"
qualitative_label = "No"

[[record]]
sequence_entry = "CUUUAGUGAGGAUAUGUGGCUUCGAUCGUGAGAUCGAGGCUACAGAAGGCACAUGAGGAUCACCCAUGUUCCUC [jl-ex4-4.01 salish99 mod] (Eterna round: R97, puzzle: Exclusion 4)"
measured_target = "MS2 coat protein"
qualitative_label = "Yes"

[[record]]
sequence_entry = "GGCAUGUAAGGAUAUCUAUCGGUGAGAAAACCAAUUGGGCAAGAGAAGGUACAUGAGGAUCACCCAUGUGGACC [Eternabot (L1) Solution 9] (Eterna round: R97, puzzle: Exclusion 4)"
measured_target = "MS2 coat protein"
qualitative_label = "Yes"

[[record]]
sequence_entry = "GCUGCAAAUGUAGGAUAUCUGCACGUGUAGUGCAGAGAAGGACAUGAGGAUCACCCAUGUAGAUCAGCAGCAAUUAAUUUAAUU [ENG1/5-A3] (Eterna round: R96, puzzle: Exclusion NG 1)"
measured_target = "MS2 coat protein"
qualitative_label = "Yes"

[[record]]
sequence_entry = "GGAUAAAACUGAGGAUAUGAGGAGAGAGAGAGAUCAGAAGGCAGACAUGAGGAUCACCCAUGUGAGUUCUCGAUAAGAAACACG [Prohibition 56 - Jieux - Exclusion NG 1] (Eterna round: R96, puzzle: Exclusion NG 1)"
measured_target = "MS2 coat protein"
qualitative_label = "Yes"

[[record]]
sequence_entry = "GCAAGCAGCUUGGAAUGAGACAUGAGGAUCACCCAUGUUCAGCACAAAGCCUUCAAUCAUCAGCUCGAAAGUAAAUG [Eternabot (L2) Solution 16] (Eterna round: R97, puzzle: Sensor, turn-off variant 1)"
measured_target = "MS2 coat protein"
qualitative_label = "No"

[[record]]
sequence_entry = "GGGCUGCGACACAGCCAAACAAAACAUGAGGAUCACCCAUGUCAGGAUAUACCGAUGCAGCAUCUGUAGAAGGGACAGAUCCAA [Lalaon] (Eterna round: R96, puzzle: Exclusion NG 3)"
measured_target = "MS2 coat protein"
qualitative_label = "Yes"

